Taken from ChEMBL document CHEMBL1128990.

Provide the reported Kina of each item.
Target or test system: Human immunodeficiency virus type 1 protease (Human immunodeficiency virus 1)
Assay text: Kinetic parameter (kina) value was determined for the compound
Give bare numbers, in min⁻¹.

Example compounds with recorded Kina:
INSERT INTO results (compound, property_measured, units, reported_value) VALUES
  ('CC(C)C(NC(=O)[C@@H]1O[C@@H]1[C@H](Cc1ccccc1)NC(=O)OCc1ccccc1)C(=O)O (stereo not given in full)', 'Kina', 'min⁻¹', 0.02),
  ('CC(C)C(NC(=O)C[C@H]1O[C@H]1[C@H](Cc1ccccc1)NC(=O)OCc1ccccc1)C(=O)O (stereo not given in full)', 'Kina', 'min⁻¹', 1.48),
  ('CC(C)C(NC(=O)C[C@H]1O[C@@H]1[C@H](Cc1ccccc1)NC(=O)OCc1ccccc1)C(=O)O (stereo not given in full)', 'Kina', 'min⁻¹', 0.2),
  ('CC(C)C(NC(=O)C[C@@H]1O[C@@H]1[C@H](Cc1ccccc1)NC(=O)C(CC(N)=O)NC(=O)c1ccc2ccccc2n1)C(C)C (stereo not given in full)', 'Kina', 'min⁻¹', 0.2);

Please turn your attention to the following entry.
Param readout = Kina; param system = Human immunodeficiency virus type 1 protease (Human immunodeficiency virus 1); param query = CCC(C)C(NC(=O)C[C@H]1O[C@H]1[C@H](Cc1ccccc1)NC(=O)C(CC(N)=O)NC(=O)c1ccc2ccccc2n1)C(=O)O (mixture of isomers) ; response: value
0.22

###

Provide the reported pKi of each item.
Target or test system: Human immunodeficiency virus type 1 protease (Human immunodeficiency virus 1)
Assay text: Inhibitory activity against HIV protease was determined
Give bare numbers, as −log10 of the molar value.

Please give pKi, item by item, for the list that follows.
1. CCC(C)C(NC(=O)C[C@H]1O[C@H]1[C@H](Cc1ccccc1)NC(=O)C(CC(N)=O)NC(=O)c1ccc2ccccc2n1)C(=O)O (mixture of isomers)
2. CC(C)C(NC(=O)C[C@H]1O[C@H]1[C@H](Cc1ccccc1)NC(=O)OCc1ccccc1)C(=O)O (stereo not given in full)
3. CC(C)C(NC(=O)C[C@H]1O[C@@H]1[C@H](Cc1ccccc1)NC(=O)OCc1ccccc1)C(=O)O (stereo not given in full)
4. CC(C)C(NC(=O)C[C@@H]1O[C@@H]1[C@H](Cc1ccccc1)NC(=O)C(CC(N)=O)NC(=O)c1ccc2ccccc2n1)C(C)C (stereo not given in full)

[7.74, 5.88, 3.70, 9.00]

###

Target or test system: Cathepsin D (Homo sapiens, UniProt P07339)
Sequence (P07339 65-162 limits assumed): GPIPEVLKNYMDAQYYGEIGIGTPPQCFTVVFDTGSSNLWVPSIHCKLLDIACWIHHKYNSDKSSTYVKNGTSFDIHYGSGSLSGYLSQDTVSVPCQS
Sequence (P07339 169-412 limits assumed): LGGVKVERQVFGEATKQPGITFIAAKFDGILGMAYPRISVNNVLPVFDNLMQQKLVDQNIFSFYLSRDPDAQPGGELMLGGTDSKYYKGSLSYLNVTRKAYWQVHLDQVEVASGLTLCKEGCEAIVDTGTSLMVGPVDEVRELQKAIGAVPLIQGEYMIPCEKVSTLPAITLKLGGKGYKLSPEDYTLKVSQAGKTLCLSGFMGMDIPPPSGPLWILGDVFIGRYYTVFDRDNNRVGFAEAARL
Property measured: pIC50
Answers are plain numbers, as −log10 of the molar value.

So what's the measured pIC50 for this one? CC(C)C(NC(=O)C[C@@H]1O[C@@H]1[C@H](Cc1ccccc1)NC(=O)C(CC(N)=O)NC(=O)c1ccc2ccccc2n1)C(C)C (stereo partly specified)
4.90
